The measured values listed here are drawn from the supplement of paper PMC11061612.

system: LS-411N (Colorectal Carcinoma); experiment: Bliss excess, mean over the matrix (fraction); higher = more synergy
property: Bliss excess
Numbers only.

// below: answered compounds
>>> measurement("CS(=O)(=O)CCNCc1ccc(-c2ccc3ncnc(Nc4ccc(OCc5cccc(F)c5)c(Cl)c4)c3c2)o1 [Lapatinib] + NC1(c2ccc(-c3nc4ccn5c(=O)[nH]nc5c4cc3-c3ccccc3)cc2)CCC1 [MK-2206] (first compound max 10 µM, 7x7, partner max 10 µM)")
-0.0339
>>> measurement("C[C@@H](c1ccc2nccn2c1)n1nnc2ncc(-c3cnn(C)c3)nc21 [Savolitinib] + CC1(C)CCC(CN2CCN(c3ccc(C(=O)NS(=O)(=O)c4ccc(NCC5CCOCC5)c([N+](=O)[O-])c4)c(Oc4cnc5[nH]ccc5c4)c3)CC2)=C(c2ccc(Cl)cc2)C1 [Venetoclax] (first compound max 1 µM, 7x7, partner max 1 µM)")
-0.0349

Which Bliss excess is reported with LS-411N (Colorectal Carcinoma) for this entry: CCN(CCO)CCCOc1ccc2c(Nc3cc(CC(=O)Nc4cccc(F)c4)[nH]n3)ncnc2c1 [AZD2811] + C=CCn1c(=O)c2cnc(Nc3ccc(N4CCN(C)CC4)cc3)nc2n1-c1cccc(C(C)(C)O)n1 [AZD1775] (first compound max 1 µM, partner max 1 µM) ?
-0.0174

###

tested on: GCT (Other Solid Carcinomas); test: Bliss excess, mean over the matrix (fraction); higher = more synergy
property: Bliss excess

// below: answered molecules
>>> measurement("Cn1cnc2c(F)c(Nc3ccc(Br)cc3Cl)c(C(=O)NOCCO)cc21 [Selumetinib] + C[C@@H]1COCCN1C2=NC(=NC(=C2)C3(CC3)[S@](=N)(=O)C)C4=C5C=CNC5=NC=C4 [AZD6738] (first compound max 10 µM, 7x7, partner max 10 µM)")
0.0294
>>> measurement("C=CCn1c(=O)c2cnc(Nc3ccc(N4CCN(C)CC4)cc3)nc2n1-c1cccc(C(C)(C)O)n1 [AZD1775] + C1CN(CCC1(C(=O)N[C@@H](CCO)C2=CC=C(C=C2)Cl)N)C3=NC=NC4=C3C=CN4 [Capivasertib] (first compound max 3 µM, partner max 3 µM)")
0.004
>>> measurement("CN(C)CCCOc1ccc(-c2ccc3ncc4c(c3c2)n(C2CCOCC2)c(=O)n4C)cn1 [AZD0156] + C=CCn1c(=O)c2cnc(Nc3ccc(N4CCN(C)CC4)cc3)nc2n1-c1cccc(C(C)(C)O)n1 [AZD1775] (first compound max 1 µM, partner max 1 µM)")
-0.0811

Alright, here's another molecule for you.
Which Bliss excess is reported for this molecule? Cc1c2c(nn1C)CSCc1cc(n(C)n1)CSc1cc(c3ccccc3c1)OCCCc1c(C(=O)O)n(C)c3c-2c(Cl)ccc13 [AZD5991] + C=CCn1c(=O)c2cnc(Nc3ccc(N4CCN(C)CC4)cc3)nc2n1-c1cccc(C(C)(C)O)n1 [AZD1775] (first compound max 1 µM, partner max 1 µM)
0.0301

###

system: A204 (Rhabdomyosarcoma); assay: combination Emax (second highest fraction inhibited in the dose matrix, 72 h); higher = more inhibition; extreme values may be limits of the assay
property: combination Emax

>>> measurement("NC1(C(=O)N[C@@H](CCO)c2ccc(Cl)cc2)CCN(c2ncnc3[nH]ccc23)CC1 [Capivasertib] + CC(=O)c1c(C)c2cnc(Nc3ccc(N4CCNCC4)cn3)nc2n(C2CCCC2)c1=O [Palbociclib] (first compound max 10 µM, 7x7, partner max 10 µM)")
0.517

Alright, here's another molecule for you.
Which combination Emax is reported for this molecule? CN(C)CCCOc1ccc(-c2ccc3ncc4c(c3c2)n(C2CCOCC2)c(=O)n4C)cn1 [AZD0156] + C[C@@H]1COCCN1C2=NC(=NC(=C2)C3(CC3)[S@](=N)(=O)C)C4=C5C=CNC5=NC=C4 [AZD6738] (first compound max 1 µM, 7x7, partner max 10 µM)
0.411
